# STUDY_TARGET: P-glycoprotein (P-gp) (Homo sapiens, UniProt P08183)
# Construct: The resistant CEM/vcr1000 line was obtained by stepwise selection in vincristine containing medium; endogenous in cells; host or cells: CCRF-CEM vcr1000 (CEM/vcr1000), a human T-lymphoblast line made multidrug resistant by vincristine selection
# Sequence (P08183 whole entry): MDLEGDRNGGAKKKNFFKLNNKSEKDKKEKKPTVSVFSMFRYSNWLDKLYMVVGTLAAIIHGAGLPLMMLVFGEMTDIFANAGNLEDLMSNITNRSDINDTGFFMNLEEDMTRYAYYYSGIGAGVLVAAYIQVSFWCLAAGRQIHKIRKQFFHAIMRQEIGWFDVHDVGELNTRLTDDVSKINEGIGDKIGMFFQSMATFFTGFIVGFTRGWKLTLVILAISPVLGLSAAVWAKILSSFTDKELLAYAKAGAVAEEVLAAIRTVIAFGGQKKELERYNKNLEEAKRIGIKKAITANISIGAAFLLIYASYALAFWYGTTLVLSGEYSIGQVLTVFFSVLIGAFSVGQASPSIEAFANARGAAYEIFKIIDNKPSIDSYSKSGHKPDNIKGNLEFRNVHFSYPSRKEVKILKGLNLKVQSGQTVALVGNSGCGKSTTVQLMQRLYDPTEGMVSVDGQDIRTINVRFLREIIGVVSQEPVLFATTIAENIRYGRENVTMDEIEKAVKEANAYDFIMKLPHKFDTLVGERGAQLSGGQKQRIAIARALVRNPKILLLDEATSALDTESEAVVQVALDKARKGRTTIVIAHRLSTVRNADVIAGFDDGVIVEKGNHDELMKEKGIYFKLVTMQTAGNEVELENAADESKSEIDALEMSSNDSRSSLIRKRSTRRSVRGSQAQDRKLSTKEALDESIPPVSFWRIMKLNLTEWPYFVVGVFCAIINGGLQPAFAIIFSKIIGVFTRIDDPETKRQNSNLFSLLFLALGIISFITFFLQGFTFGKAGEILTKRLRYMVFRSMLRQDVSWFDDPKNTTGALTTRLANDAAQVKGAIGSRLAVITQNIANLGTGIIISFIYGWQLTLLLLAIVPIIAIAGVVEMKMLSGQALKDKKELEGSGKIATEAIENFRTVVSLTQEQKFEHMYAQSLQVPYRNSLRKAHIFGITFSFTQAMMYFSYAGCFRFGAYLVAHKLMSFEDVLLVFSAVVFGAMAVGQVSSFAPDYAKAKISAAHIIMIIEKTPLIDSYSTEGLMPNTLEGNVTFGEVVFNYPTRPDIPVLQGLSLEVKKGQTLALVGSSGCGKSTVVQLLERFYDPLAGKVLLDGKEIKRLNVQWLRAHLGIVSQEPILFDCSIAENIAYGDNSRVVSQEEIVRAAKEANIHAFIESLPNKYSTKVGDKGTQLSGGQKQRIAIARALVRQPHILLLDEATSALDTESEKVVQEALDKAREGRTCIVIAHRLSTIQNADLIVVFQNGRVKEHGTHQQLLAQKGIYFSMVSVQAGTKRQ
# ASSAY_DETAILS: Daunorubicin efflux inhibition in multidrug resistant CCRF-CEM vcr1000 cells
# Type: cell-based
# MEASUREMENT_CONDITIONS: inhibition of P-gp mediated daunorubicin efflux, CCRF-CEM vcr1000 cells; mean of at least three experiments; read-out: IC50 μM ± SD
QUANTITY_KIND: IC50 (µM)
// note: answer is a bare numeric in µM

Example entries begin here.
- MOLECULE: "CC(C)[C@@H](N[C@H]1c2cc(C#N)ccc2OC(C)(C)[C@@H]1O)C(=O)OC(C)(C)C [10b]"
  UNIT_NAME: "µM"
  IC50: 1.34
- MOLECULE: "CC(C)(C)OC(=O)[C@H](Cc1ccccc1)N[C@@H]1c2cc(C#N)ccc2OC(C)(C)[C@H]1O"
  UNIT_NAME: "µM"
  IC50: 0.55
- MOLECULE: "CC1(C)Oc2ccc(C#N)cc2[C@@H]2N[C@@H](Cc3ccccc3)C(=O)O[C@H]21 [14b]"
  UNIT_NAME: "µM"
  IC50: 260
- MOLECULE: "C[C@H](N[C@H]1c2cc(C#N)ccc2OC(C)(C)[C@@H]1O)C(=O)OC(C)(C)C"
  UNIT_NAME: "µM"
  IC50: 14.6
- MOLECULE: "CC(C)[C@@H](CO)N[C@@H]1c2cc(C#N)ccc2OC(C)(C)[C@H]1O [19a]"
  UNIT_NAME: "µM"
  IC50: 54.1

Input: I have this molecule here, C[C@H]1C(=O)O[C@H]2[C@@H](c3cc(C#N)ccc3OC2(C)C)N1C [15a] , and I need its recorded IC50.
Output: 47.8

Input: I have this molecule here, CC(C)[C@@H](CCl)N(C)[C@H]1c2cc(C#N)ccc2OC(C)(C)[C@@H]1O [22b] , and I need its recorded IC50.
Output: 45.2

Input: I have this molecule here, CC(C)[C@H]1C(=O)O[C@@H]2[C@H](c3cc(C#N)ccc3OC2(C)C)N1C [16b] , and I need its recorded IC50.
Output: 16.7

Input: I have this molecule here, CC(C)[C@@H]1N[C@@H]2c3cc(C#N)ccc3OC(C)(C)[C@H]2OC1=O [13a] , and I need its recorded IC50.
Output: 15.3

Input: I have this molecule here, CC1(C)Oc2ccc(C#N)cc2[C@H]2N[C@@H](Cc3ccccc3)C(=O)O[C@@H]21 [14a] , and I need its recorded IC50.
Output: 2.68

Input: I have this molecule here, C[C@H](N[C@@H]1c2cc(C#N)ccc2OC(C)(C)[C@H]1O)C(=O)OC(C)(C)C , and I need its recorded IC50.
Output: 29.9

Input: I have this molecule here, CC(C)[C@@H]1C(=O)O[C@H]2[C@@H](c3cc(C#N)ccc3OC2(C)C)N1C [18a] , and I need its recorded IC50.
Output: 79.3

Input: I have this molecule here, C[C@H]1C(=O)O[C@@H]2[C@H](c3cc(C#N)ccc3OC2(C)C)N1C [15b] , and I need its recorded IC50.
Output: 28.9

Input: I have this molecule here, CC(C)[C@H](C(=O)OC(C)(C)C)N(C)[C@H]1c2cc(C#N)ccc2OC(C)(C)[C@@H]1O [11b] , and I need its recorded IC50.
Output: 1

Input: I have this molecule here, C[C@@H]1N[C@@H]2c3cc(C#N)ccc3OC(C)(C)[C@H]2OC1=O [12a] , and I need its recorded IC50.
Output: 1240

Input: I have this molecule here, CC(C)[C@@H]1C(=O)O[C@@H]2[C@H](c3cc(C#N)ccc3OC2(C)C)N1C [18b] , and I need its recorded IC50.
Output: 27.8

Input: I have this molecule here, CC(C)[C@@H](CO)N[C@H]1c2cc(C#N)ccc2OC(C)(C)[C@@H]1O [19b] , and I need its recorded IC50.
Output: 103

Input: I have this molecule here, CC(C)(C)OC(=O)[C@H](Cc1ccccc1)N[C@H]1c2cc(C#N)ccc2OC(C)(C)[C@@H]1O , and I need its recorded IC50.
Output: 0.77

====

# STUDY_TARGET: P-glycoprotein (P-gp) (Homo sapiens, UniProt P08183)
# Construct: The resistant CEM/vcr1000 line was obtained by stepwise selection in vincristine containing medium; endogenous in cells; host or cells: CCRF-CEM vcr1000 (CEM/vcr1000), a human T-lymphoblast line made multidrug resistant by vincristine selection
# ASSAY_DETAILS: Daunorubicin efflux inhibition in multidrug resistant CCRF-CEM vcr1000 cells
# Format: cell-based
# MEASUREMENT_CONDITIONS: SM Table 2; logarithm of the measured IC50 (μM) of Table 1
Give rule met when the value for Exp. LogIC50 is at least -1. Give rule not met when it is less.

Recorded results for 8 molecules are shown here.
- MOLECULE: "C[C@@H]1N[C@@H]2c3cc(C#N)ccc3OC(C)(C)[C@H]2OC1=O [12a]"
  STUDY_TARGET: "P-glycoprotein (P-gp) (Homo sapiens, UniProt P08183)"
  CLASSIFICATION: "rule not met"
- MOLECULE: "CC(C)[C@@H](CCl)N(C)[C@@H]1c2cc(C#N)ccc2OC(C)(C)[C@H]1O [22a]"
  STUDY_TARGET: "P-glycoprotein (P-gp) (Homo sapiens, UniProt P08183)"
  CLASSIFICATION: "rule not met"
- MOLECULE: "C[C@H](N[C@H]1c2cc(C#N)ccc2OC(C)(C)[C@@H]1O)C(=O)OC(C)(C)C"
  STUDY_TARGET: "P-glycoprotein (P-gp) (Homo sapiens, UniProt P08183)"
  CLASSIFICATION: "rule not met"
- MOLECULE: "CC(C)[C@@H](C(=O)OC(C)(C)C)N(C)[C@H]1c2cc(C#N)ccc2OC(C)(C)[C@@H]1O"
  STUDY_TARGET: "P-glycoprotein (P-gp) (Homo sapiens, UniProt P08183)"
  CLASSIFICATION: "rule met"
- MOLECULE: "CC1(C)Oc2ccc(C#N)cc2[C@@H]2N[C@@H](Cc3ccccc3)C(=O)O[C@H]21 [14b]"
  STUDY_TARGET: "P-glycoprotein (P-gp) (Homo sapiens, UniProt P08183)"
  CLASSIFICATION: "rule not met"
- MOLECULE: "CC(C)[C@@H](N[C@@H]1c2cc(C#N)ccc2OC(C)(C)[C@H]1O)C(=O)OC(C)(C)C [10a]"
  STUDY_TARGET: "P-glycoprotein (P-gp) (Homo sapiens, UniProt P08183)"
  CLASSIFICATION: "rule met"
- MOLECULE: "CC(C)[C@@H]1N[C@H]2c3cc(C#N)ccc3OC(C)(C)[C@@H]2OC1=O [13b]"
  STUDY_TARGET: "P-glycoprotein (P-gp) (Homo sapiens, UniProt P08183)"
  CLASSIFICATION: "rule not met"
- MOLECULE: "C[C@@H]1N[C@H]2c3cc(C#N)ccc3OC(C)(C)[C@@H]2OC1=O [12b]"
  STUDY_TARGET: "P-glycoprotein (P-gp) (Homo sapiens, UniProt P08183)"
  CLASSIFICATION: "rule not met"

Input: # bool: Exp. LogIC50 of CC(C)[C@H](C(=O)OC(C)(C)C)N(C)[C@H]1c2cc(C#N)ccc2OC(C)(C)[C@@H]1O [11b] >= -1
Output: rule met

Input: # bool: Exp. LogIC50 of CC(C)[C@H](C(=O)OC(C)(C)C)N(C)[C@@H]1c2cc(C#N)ccc2OC(C)(C)[C@H]1O [11a] >= -1
Output: rule met

Input: # bool: Exp. LogIC50 of CC(C)[C@@H](CO)N[C@@H]1c2cc(C#N)ccc2OC(C)(C)[C@H]1O [19a] >= -1
Output: rule not met

Input: # bool: Exp. LogIC50 of CC(C)[C@@H](CO)N(C)[C@@H]1c2cc(C#N)ccc2OC(C)(C)[C@H]1O [20a] >= -1
Output: rule met

Entry source: paper PMC3589648
